Values compiled from paper PMC12566593.

- ASSAY PROCEDURE: Equilibrium solubility, saturation shake-flask, centrifugation as phase separation
- CONDITIONS USED: Britton-Robinson buffer, 25 °C, pH 10, aqueous buffer, thermodynamic from solid, Equilibrium solubility S stir, pH 10.0; continuously stirred, no sedimentation; 10,000 rpm, 10 min
Where a name gives a salt, the structure may show the parent alone.
OBSERVATION TYPE: solubility thermodynamic at 24 h (mg/mL)
The figure you give is taken to be in mg/mL; do not add the unit.

Ask: Would you mind telling me what solubility thermodynamic at 24 h value was observed for COc1ccc(Cc2nccc3cc(OC)c(OC)cc23)cc1OC [PAP-HCL, papaverine hydrochloride] ?
Reply: 0.0182
